system_tested: T1, human Trop-2 on the surface of cells (CHO/Trop-2 cells; BxPC-3 cells; NCI-N87 cells) (human, UniProt P09758 27-323)
T1 sequence (looked up): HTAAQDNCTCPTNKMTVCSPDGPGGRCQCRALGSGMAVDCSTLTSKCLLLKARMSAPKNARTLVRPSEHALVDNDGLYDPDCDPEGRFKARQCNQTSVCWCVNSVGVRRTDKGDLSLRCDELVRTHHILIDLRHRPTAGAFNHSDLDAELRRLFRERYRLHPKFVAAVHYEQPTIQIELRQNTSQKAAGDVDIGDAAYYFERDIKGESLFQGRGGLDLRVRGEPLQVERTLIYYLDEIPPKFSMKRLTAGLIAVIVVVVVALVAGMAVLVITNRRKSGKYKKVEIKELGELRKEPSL
assay_overview: cell-based or functional assay
measurement_label: Internalization percentage (%), 3 h, BxPC-3 cells, FACS

binder | reported_measurement
chimeric antibody ch11-4 (antibody, human IgG1, V domains shown) VH: QVQLQQPGAELVRPGASVNLSCKASGYTFTSYWINWVKQRPGQGLEWIGNIYPSNSYTNYNQKFKDTATLTVDKSSSTAYMQLSSPTSEDSAVYFCSSYRSDGFAYWGQGTLVTVSA VL: DILLTQSPAILSVSPGEKVSFSCRASQNIGTSIHWYQQRTNGSPRLLIEFASESISGIPSRFSGSGSGTDFTLTINSVESEDIADYYCQQSNSWPFTFGGGTKLEIK | -7.4
